studySystem: Interleukin-1 receptor-associated kinase 1 (Homo sapiens, UniProt P51617)
Sequence (P51617 whole entry): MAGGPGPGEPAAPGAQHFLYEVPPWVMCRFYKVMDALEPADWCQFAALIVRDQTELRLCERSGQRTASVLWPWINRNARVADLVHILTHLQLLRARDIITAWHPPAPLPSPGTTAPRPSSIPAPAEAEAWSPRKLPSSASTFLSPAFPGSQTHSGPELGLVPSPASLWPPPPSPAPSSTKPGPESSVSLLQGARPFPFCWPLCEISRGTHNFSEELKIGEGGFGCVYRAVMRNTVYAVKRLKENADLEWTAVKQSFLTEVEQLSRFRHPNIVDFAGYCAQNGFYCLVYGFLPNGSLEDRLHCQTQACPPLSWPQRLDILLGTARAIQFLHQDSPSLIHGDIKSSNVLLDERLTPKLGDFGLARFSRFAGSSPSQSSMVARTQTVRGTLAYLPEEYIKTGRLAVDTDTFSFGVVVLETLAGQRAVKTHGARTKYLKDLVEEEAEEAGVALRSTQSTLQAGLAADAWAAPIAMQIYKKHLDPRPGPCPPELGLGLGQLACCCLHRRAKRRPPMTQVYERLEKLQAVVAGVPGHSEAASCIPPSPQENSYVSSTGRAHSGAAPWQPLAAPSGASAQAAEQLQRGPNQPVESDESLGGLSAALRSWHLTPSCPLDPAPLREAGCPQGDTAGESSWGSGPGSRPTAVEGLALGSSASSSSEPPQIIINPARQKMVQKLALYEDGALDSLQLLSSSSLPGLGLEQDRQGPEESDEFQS
assayOverview: IRAK1 Enzymatic Assay: IRAK1 is a human purified recombinant enzyme (His-TEV-IRAK1 (194-712)) In this assay, IRAK-1 hydrolyses ATP and autophosphorylates.Measurement of IRAK-1 inhibition is performed in streptavidin coated 384 well FlashPlate (PerkinElmer #SMP410A).His-TEV-IRAK-1 (15 ng/well), ATP (1 μM, [33P]ATP 0.25 μCi/well) and compounds in DMSO (range of concentrations from 20 μM to 1 nM) or controls (2% DMSO) are incubated for 3 hours at 30° C. in assay buffer: Hepes pH 7.0 50 mM, Fatty acid-free BSA 0.1%, Dithiothreitol DTT 2 mM, MgCl2 10 mM, EGTA 0.5 mM, Triton-X-100 0.01%. Kinase reaction is stopped by addition of EDTA. Supernatant is discarded, plates are washed three times with 150 mM NaCl and radioactivity is then measured in a Microbeta Trilux reader.
recordedMetric: IC50

Input: Assign IC50 to the following record: `O=C1Nc2nc3ccccc3n2CCn2cc(cn2)-c2ccc(=O)n(n2)Cc2cccc1c2`
Output: < 0.1 µM
